- System: HCC 2998
- experiment: NCI tumour cell line growth inhibition, 48 h
Calls of active or inactive are those of the source. Cut-off read from the data, not from the text of the source: active = GI50 up to about 1.1 µM and inactive = higher.
Pick one: yes for active, no for inactive

{"compound": "Nc1nc(Cl)c(N)c(NCC2(CO)CCC(CCc3ccccc3)C2)n1 (centres undefined)", "assigned class": "no"}
{"compound": "O=[N+]([O-])c1cccc2nccc(NCCCO)c12", "assigned class": "no"}
{"compound": "O=C(Cn1cc(F)c(=O)[nH]c1=O)C12CC3CC(CC(C3)C1)C2", "assigned class": "no"}
{"compound": "COC(=O)C1=C(c2cc(OC)c(OC)c(OC)c2)OC(c2cc(OC)c(OC)c(OC)c2)C1 (centres undefined)", "assigned class": "no"}
{"compound": "CC1(Cc2cc3c(cc2C2(c4ccc([N+](=O)[O-])cc4)OCCO2)OCO3)OCCO1", "assigned class": "no"}
{"compound": "CC1(C)OC(C(N)=O)=C(C(N)=O)O1", "assigned class": "no"}

# fetch the recorded call for `NC1=NC(=O)/C(=C/c2ccccc2[N+](=O)[O-])C(N)=N1` here
no

Can you look up the reported call for `COc1ccc2c(CCNS(=O)(=O)c3ccccc3)c(C(C)=O)[nH]c2c1` for me?
no

I'd appreciate the recorded outcome for `Nn1c(Cc2ccc(Cl)cc2)n[nH]c1=O` from this test.
no

Short answer needed: outcome of this test for Cc1cccc(NC(=O)CC(=O)N2N=C(N(CCC#N)c3ccc(Cl)cc3)CC2c2ccccc2)c1 (centres undefined) ?
no

Hi team, can someone confirm the assay call for `Cc1cc(S(=O)(=O)N=C2N(Cc3ccccc3)CCN2Cc2ccccc2)c(S)cc1Cl` ?
no

----------
- Tested on: A549
- experiment: NCI tumour cell line growth inhibition, 48 h
Active and inactive are the calls of the source. Rule as the data show it: active = GI50 up to about 1.1 µM and inactive = higher.
readout: GI50

{"molecule": "COc1cc(CCN(C)C)cc(OC)c1OC", "assay result": "> 100 µM (inactive)"}
{"molecule": "Cc1ccc(NC(=O)/C=C/c2ccccc2)c(C)c1", "assay result": "> 100 µM (inactive)"}
{"molecule": "CCOc1ccccc1NC(=O)C1=C(C)NC(C)=C(C(=O)Nc2ccccc2OCC)C1c1ccc2c(c1)OCO2", "assay result": "28.2 µM (inactive)"}
{"molecule": "Cc1cccc(NC(=O)CC(=O)N2N=C(N(CCC#N)c3ccc(Cl)cc3)CC2c2ccccc2)c1 (configuration not stated)", "assay result": "> 100 µM (inactive)"}
{"molecule": "CC(=O)c1ccc(NC(=O)/C(CC(=O)c2sc(-c3cccnc3)nc2C)=N/NC(N)=O)cc1", "assay result": "22.5 µM (inactive)"}
{"molecule": "CC(=O)N1CC(C)(C)c2c(C)c(O)c(C)c(C)c21", "assay result": "> 100 µM (inactive)"}

Dear colleague, I am looking for the recorded GI50 of the following molecule: `Cc1c(C(=O)O)oc2ccc([N+](=O)[O-])cc12`
> 100 µM (inactive)

What value of measured GI50 is listed for CC(=O)N1CCN(c2ccc(OCC3COC(Cn4ccnc4)(c4ccc(Cl)cc4Cl)O3)cc2)CC1 (configuration not stated) ?
27.3 µM (inactive)

----------
- Tested on: HCT-116
- experiment: NCI tumour cell line growth inhibition, 48 h
Active and inactive are the calls of the source. No stated cut-off is given here; in the data, active = GI50 up to about 1.1 µM and inactive = higher.
Select the correct class. Options are yes (1) for active, no (0) for inactive and nothing else.

Solved entries (count: 2):
{"compound": "CC1SC(c2ccccc2)N(Nc2c3ccccc3nc3ccccc23)C1=O (configuration not stated)", "subject of test": "HCT-116", "assigned class": "no (0)"}
{"compound": "COc1cc2c[n+](C)c3c(c2cc1OC)Cc1cc2c(cc1-3)OCO2", "subject of test": "HCT-116", "assigned class": "no (0)"}

Please indicate how the test categorized CN1C(=O)CCC2[C@@H]3CC=C4C[C@@H](O)CC[C@]4(C)C3CC[C@@]21C (some centres not stated) .
no (0)

GET /call?item= `CN(C)CCNc1c([N+](=O)[O-])cc2c3c(cccc13)C(=O)N(CCN(C)C)C2=O` returns the recorded outcome of this test.
yes (1)

Status in this test for `O=C1NC(N2CCOCC2)=N/C1=C\c1ccccc1O` ?
no (0)

Which outcome did this test record for the compound `[O-]c1c[n+](CC[n+]2cc([O-])on2)no1` ?
no (0)

Could you check what this test reported for COc1cc(/C=C2\CCC(C)C3=C2NC(=S)NC3c2cc(OC)c(OC)c(OC)c2)cc(OC)c1OC (configuration not stated) ?
no (0)
